Experiment: Lipophilicity, log D of the compound
Type: physicochemical
Settings: octanol/water
observation.type: logD

Solved cases below.
| smiles.string | logD |
| --- | --- |
| O=C1CN(Cc2ccc(-c3ccc(F)c(CN4CCCCC4)n3)cc2)C(=O)N1CC(F)F | 1.9 |
| CN1C(=O)CN(Cc2ccc(-c3cccc(CN4CCCCC4)n3)cc2)C1=O | 1.3 |
| O=C1CN(Cc2ccc(-c3cccc(CN4CCCCC4)n3)cc2)C(=O)N1C1CC1 | 1.6 |

I: O=C1CN(Cc2ccc(-c3cccc(CN4CCCCC4)n3)cc2)C(=O)N1CC(F)F
II: CCCN1C(=O)CN(Cc2ccc(-c3ccc(F)c(CN4CCCCC4)n3)cc2)C1=O
// query Determine, for I and II , which has the greater value of logD. // return label of chosen record
// result II
(II: 2.5, I: 1.6)
